- tested system: recombinant mouse GALK1 (Mus musculus)
- method summary: mGALK1 biochemical activity assay (Kinase-Glo Plus, ATP depletion)
- condition: Tables 2-15; 35 μM ATP, 100 μM galactose, 1 h; bracketed figure after some values is undefined and not reported; read-out: mGALK IC50
experimental readout: pIC50
In simple prose, pIC50 is minus the logarithm base ten of a concentration in moles per litre.

The cases that follow already have their pIC50 on record.
[
  {
    "compound": "COC(=O)c1ccnc(NC(=O)C2=C(C)NC(Nc3nc4ccccc4o3)=NC2c2ccccc2Cl)c1 (stereo not drawn)",
    "pIC50": 5.26
  },
  {
    "compound": "CC1=C(C(=O)Nc2cc(C(=O)O)ccn2)C(c2ccccc2Cl)N=C(Nc2nc3cccc(C)c3o2)N1 (stereo not drawn)",
    "pIC50": 5.16
  },
  {
    "compound": "CC1=C(C(=O)Nc2cc(C(=O)O)ccn2)[C@@H](c2ccccc2Cl)N=C(Nc2nc3ccc(F)cc3o2)N1",
    "pIC50": 4.86
  },
  {
    "compound": "CC1=C(C(=O)Nc2cccc(C(=O)O)n2)C(c2ccccc2Cl)N=C(Nc2nc3ccccc3o2)N1 (stereo not drawn)",
    "pIC50": 5.16
  }
]

pIC50 for recombinant mouse GALK1 (Mus musculus) with input CC1=C(C(=O)Nc2cc(C(=O)O)ccn2)C(c2cccc(S(N)(=O)=O)c2)N=C(Nc2nc3ccc(F)cc3o2)N1 (stereo not drawn) equals 4.41

pIC50 for recombinant mouse GALK1 (Mus musculus) with input COC(=O)c1csc(NC(=O)C2=C(C)NC(Nc3nc4ccccc4o3)=NC2c2ccccc2Cl)n1 (stereo not drawn) equals 4.86

pIC50 for recombinant mouse GALK1 (Mus musculus) with input CC1=C(C(=O)Nc2cc(C(=O)O)ccn2)[C@H](c2ccc(C)cc2Cl)N=C(Nc2nc3cccc(N)c3o2)N1 equals 5.85

pIC50 for recombinant mouse GALK1 (Mus musculus) with input CC1=C(C(=O)Nc2cc(C(=O)O)ccn2)C(c2ccccc2Cl)N=C(Nc2nc3c(C)cccc3o2)N1 (stereo not drawn) equals 4.76

----------
- tested system: recombinant mouse GALK1 (Mus musculus, UniProt Q9R0N0)
- Sequence (Q9R0N0 whole entry): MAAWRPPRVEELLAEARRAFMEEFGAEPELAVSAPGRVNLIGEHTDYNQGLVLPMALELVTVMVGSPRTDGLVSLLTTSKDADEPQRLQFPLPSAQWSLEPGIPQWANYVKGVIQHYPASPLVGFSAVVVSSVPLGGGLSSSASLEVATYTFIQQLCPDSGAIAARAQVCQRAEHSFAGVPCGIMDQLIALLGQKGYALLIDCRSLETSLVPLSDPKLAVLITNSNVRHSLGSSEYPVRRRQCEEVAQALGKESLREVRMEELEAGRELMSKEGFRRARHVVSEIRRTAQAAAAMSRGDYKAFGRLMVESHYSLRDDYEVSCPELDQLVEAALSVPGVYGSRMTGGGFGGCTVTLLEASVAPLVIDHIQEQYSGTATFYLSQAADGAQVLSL
- method summary: mGALK1 biochemical activity assay (Kinase-Glo Plus, ATP depletion)
- condition: Tables 2-15; 35 μM ATP, 100 μM galactose, 1 h; bracketed figure after some values is undefined and not reported; read-out: mGALK IC50
pIC50: −log10 of the molar value.
# pIC50 >= 5 gives Yes, anything below gives No

Past entries and their recorded results:
[
  {
    "compound": "CC1=C(C(=O)NCc2cnn(Cc3ccccc3)c2)C(c2ccc(C)cc2Cl)N=C(Nc2nc3ccc(F)cc3o2)N1 (stereo not shown) [Compound 110]",
    "label class": "Yes"
  },
  {
    "compound": "CC1=C(C(=O)Nc2ccc(N3CCNCC3)cc2)C(c2ccccc2Cl)N=C(Nc2nc3ccccc3o2)N1 (stereo not shown) [Compound 190]",
    "label class": "No"
  },
  {
    "compound": "CC1=C(C(=O)Nc2ccc(CN)cc2)C(c2ccccc2Cl)N=C(Nc2nc3ccccc3o2)N1 (stereo not shown) [Compound 169]",
    "label class": "Yes"
  },
  {
    "compound": "CC1=C(C(=O)Nc2cc(C(=O)O)ccn2)C(c2ccc(C)cc2Cl)N=C(Nc2nc3ccc(F)cc3o2)N1 (racemic) [Compound 50]",
    "label class": "Yes"
  }
]

input: Record CC1=C(C(=O)NCc2cnn(C(C)(C)C)c2)C(c2ccc(C)cc2Cl)N=C(Nc2nc3ccc(F)c(N)c3o2)N1 (stereo not shown) [Compound 132] ; criterion: pIC50 no lower than 5. Met?
output: Yes

input: Record CC1=C(C(=O)Nc2nc(C(=O)O)cs2)C(c2ccccc2Cl)N=C(Nc2nc3ccccc3o2)N1 (stereo not shown) [Compound 200] ; criterion: pIC50 no lower than 5. Met?
output: No

input: Record CC1=C(C(=O)NCc2ccccc2CO)C(c2ccccc2Cl)N=C(Nc2nc3ccccc3o2)N1 (stereo not shown) [Compound 229] ; criterion: pIC50 no lower than 5. Met?
output: No

input: Record CC1=C(C(=O)Nc2cc(C(=O)O)ccn2)[C@H](c2ccccc2Cl)N=C(Nc2nc3ccc(F)cc3o2)N1 [Compound 19] ; criterion: pIC50 no lower than 5. Met?
output: Yes

input: Record CC1=C(C(=O)Nc2cc(C(=O)O)ccn2)C(c2ccc(N3CCOCC3)cc2Cl)N=C(Nc2nc3ccc(F)cc3o2)N1 (stereo not shown) [Compound 59] ; criterion: pIC50 no lower than 5. Met?
output: Yes

input: Record CC1=C(C(=O)Nc2cc(C(=O)O)ccn2)C(c2cccc(C(N)=O)c2)N=C(Nc2nc3ccc(F)cc3o2)N1 (stereo not shown) [Compound 76] ; criterion: pIC50 no lower than 5. Met?
output: No

----------
- tested system: recombinant human GALK1 (Homo sapiens)
- method summary: hGALK1 biochemical activity assay (Kinase-Glo Plus, ATP depletion)
- condition: Tables 2-15; 35 μM ATP, 100 μM galactose, 1 h; bracketed figure after some values (e.g. −1.2) is undefined and not reported; read-out: hGALK IC50
experimental readout: IC50 (µM)
Please reply with the bare figure in µM and do not write the unit itself.

IC50 for recombinant human GALK1 (Homo sapiens) with input CC1=C(C(=O)Nc2cc(C(=O)O)ccn2)C(c2ccc(C(F)(F)F)cc2Cl)N=C(Nc2nc3ccc(F)cc3o2)N1 (stereo not shown) equals 1.53

IC50 for recombinant human GALK1 (Homo sapiens) with input CC1=C(C(=O)Nc2ccc([N+](=O)[O-])cc2)C(c2ccccc2Cl)N=C(Nc2nc3ccccc3o2)N1 (stereo not shown) equals 3.43

IC50 for recombinant human GALK1 (Homo sapiens) with input CC1=C(C(=O)Nc2ccc(C(=O)N3CCOCC3)cc2)C(c2ccccc2Cl)N=C(Nc2nc3ccccc3o2)N1 (stereo not shown) equals 19.3

IC50 for recombinant human GALK1 (Homo sapiens) with input CC1=C(C(=O)Nc2cccc(CCO)c2)C(c2ccccc2Cl)N=C(Nc2nc3ccccc3o2)N1 (stereo not shown) equals 17.2

----------
- tested system: recombinant human GALK1 (Homo sapiens, UniProt P51570)
- Sequence (P51570 whole entry): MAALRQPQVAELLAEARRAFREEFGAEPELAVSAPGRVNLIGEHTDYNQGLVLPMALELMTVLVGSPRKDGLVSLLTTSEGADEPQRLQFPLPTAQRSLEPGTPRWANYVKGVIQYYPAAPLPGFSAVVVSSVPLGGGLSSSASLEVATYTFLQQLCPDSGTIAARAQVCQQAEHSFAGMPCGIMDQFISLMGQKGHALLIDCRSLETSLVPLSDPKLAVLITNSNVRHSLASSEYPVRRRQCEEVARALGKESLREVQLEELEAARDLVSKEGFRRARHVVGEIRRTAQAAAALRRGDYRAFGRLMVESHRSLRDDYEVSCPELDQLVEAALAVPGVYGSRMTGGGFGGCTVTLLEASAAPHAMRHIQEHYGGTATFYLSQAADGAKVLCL
- method summary: hGALK1 biochemical activity assay (Kinase-Glo Plus, ATP depletion)
- condition: recombinant human GALK1, Kinase-Glo Plus ATP depletion; read-out: hGALK
pIC50: −log10 of the molar value.
# pIC50 >= 6 gives Y, anything below gives N

Past entries and their recorded results:
[
  {
    "compound": "CC1=C(C(=O)NCc2cnn(C)c2)C(c2ccc(C)cc2Cl)N=C(Nc2nc3ncccc3o2)N1 (stereo not shown)",
    "tested system": "recombinant human GALK1 (Homo sapiens, UniProt P51570)",
    "label class": "N"
  },
  {
    "compound": "CC1=C(C(=O)Nc2cc(C(=O)O)ccn2)C(c2ccc(C)cc2Cl)N=C(Nc2nc3ncccc3o2)N1 (stereo not shown)",
    "tested system": "recombinant human GALK1 (Homo sapiens, UniProt P51570)",
    "label class": "N"
  },
  {
    "compound": "CC1=C(C(=O)Nc2cc(C(=O)O)ccn2)C(c2ccc(C)cc2Cl)N=C(Nc2nc3c(o2)CCCC3)N1 (stereo not shown)",
    "tested system": "recombinant human GALK1 (Homo sapiens, UniProt P51570)",
    "label class": "N"
  }
]

input: Record CCn1nc(C)c(CNC(=O)C2=C(C)NC(Nc3nc4ccc(F)c(N)c4o3)=NC2c2ccc(C)cc2Cl)c1F (stereo not shown) ; criterion: pIC50 no lower than 6. Met?
output: Y

input: Record CCOC(=O)c1nnc(NC(=O)C2=C(C)NC(Nc3nc4ccccc4o3)=NC2c2ccccc2Cl)s1 (stereo not shown) ; criterion: pIC50 no lower than 6. Met?
output: N

input: Record COC(=O)Cc1ccc(NC(=O)C2=C(C)NC(Nc3nc4ccccc4o3)=NC2c2ccccc2Cl)cc1 (stereo not shown) ; criterion: pIC50 no lower than 6. Met?
output: N

----------
Each entry below carries its reported Sol..
- method summary: aqueous kinetic solubility

[
  {
    "molecule": "CC1=C(C(=O)Nc2cc(C(=O)O)ccn2)C(c2ccc(C(=O)O)cc2Cl)N=C(Nc2nc3ccc(F)cc3o2)N1 (stereo not shown) [Compound 72]",
    "Sol.": ">83 µg/mL"
  },
  {
    "molecule": "CC1=C(C(=O)Nc2cc(C(=O)O)ccn2)C(c2ccccc2Cl)N=C(Nc2nc3cc(C)ccc3o2)N1 (stereo not shown) [Compound 4]",
    "Sol.": "<1 µg/mL"
  },
  {
    "molecule": "CC1=C(C(=O)Nc2cc(C(=O)O)ccn2)C(c2ccccc2Cl)N=C(Nc2nc3c(N)cccc3o2)N1 (stereo not shown) [Compound 2]",
    "Sol.": ">76 µg/mL"
  }
]

Now look at this entry.
Documented Sol. of COc1ccc(C2N=C(Nc3nc4cccc(N)c4o3)NC(C)=C2C(=O)Nc2cc(C(=O)O)ccn2)c(Cl)c1 (racemic) [Compound 80] : >81 µg/mL
